target: Serotonin 2 (5-HT2) receptor (Rattus norvegicus, UniProt P30994+P08909+P14842); experiment: Inhibition of [3H]ketanserin binding to rat 5-hydroxytryptamine 2 receptors.; format: protein assay
quantityMeasured: IC50 (nM)

Reference set, count: 5
[
  {
    "molecule": "OCCN1CCC(c2cn(-c3ccc(F)cc3)c3ccc(Cl)cc23)CC1",
    "IC50 [nM]": 2.7
  },
  {
    "molecule": "CC(C)N1CCN(CCN2CCC(c3cn(-c4ccc(F)cc4)c4ccc(Cl)cc34)CC2)C1=O",
    "IC50 [nM]": 2.1
  },
  {
    "molecule": "O=C1NCCN1CCCCN1CCC(c2cn(-c3ccc(F)cc3)c3ccc(Cl)cc23)CC1",
    "IC50 [nM]": 59
  },
  {
    "molecule": "O=C1NCCN1CCN1CCC(c2cn(-c3ccc(F)cc3)c3ccccc23)CC1",
    "IC50 [nM]": 0.082
  },
  {
    "molecule": "O=C1NCCN1CCN1CCC(c2c[nH]c3ccc(Cl)cc23)CC1",
    "IC50 [nM]": 25
  }
]

(a) O=C1N(CCN2CCC(c3cn(-c4ccc(F)cc4)c4ccc(Cl)cc34)CC2)CCN1c1ccccc1
(b) O=C1NCCN1CCN1CCC(c2cn(-c3ccc(F)cc3)c3ccc(C(F)(F)F)cc23)CC1
(c) O=C1NCCN1CCCCCN1CCC(c2cn(-c3ccc(F)cc3)c3ccc(Cl)cc23)CC1
(d) Cc1ccc2c(c1)c(C1CCN(CCN3CCNC3=O)CC1)cn2-c1ccc(F)cc1
# ascending order, key=IC50 Field: ranking. Enter the labels in the order requested.
d, b, c, a

(a) O=C1NCCN1CCN1CCC(c2cn(-c3ccc(F)cc3)c3ccc(Br)cc23)CC1
(b) CN1CCN(CCN2CCC(c3cn(-c4ccc(F)cc4)c4ccc(Cl)cc34)CC2)C1=O
a or b : whose IC50 is greater? Let me know the label of the one you choose.
a
(a: 1.3 nM, b: 0.24 nM)

(P) O=C1NCCN1CCCN1CCC(c2cn(-c3ccc(F)cc3)c3ccc(Cl)cc23)CC1
(Q) O=C1NCCN1CCN1CCC(c2cn(-c3ccc(F)cc3)c3ccc(F)cc23)CC1
Between P and Q , which one shows the smaller IC50 number? Let me know the label of the one you choose.
Q

(A) COc1ccc2c(c1)c(C1CCN(CCN3CCNC3=O)CC1)cn2-c1ccc(F)cc1
(B) OCCN1CCN([C@@H]2C[C@@H](c3ccc(F)cc3)c3ccc(C(F)(F)F)cc32)CC1 (racemic) [TEFLUDAZINE]
A or B : whose IC50 is greater? Let me know the label of the one you choose.
B
